Procedure Text: Long-term stability in spiked pooled human plasma
Run Conditions: validation standard LLOV
Outcome Measure: Long-term stability, 3 month, -20°C Accuracy [%] (%)

{"Molecule": "Cc1[nH]c2ccccc2c1CCNCc1ccc(/C=C/C(=O)NO)cc1", "Result": 8.2}
{"Molecule": "N#CC[C@H](C1CCCC1)n1cc(-c2ncnc3[nH]ccc23)cn1", "Result": 101.8}
{"Molecule": "CNC(=O)c1ccc(N2C(=S)N(c3cnc(C#N)c(C(F)(F)F)c3)C(=O)C23CCC3)cc1F [Apalutamide]", "Result": 90.4}
{"Molecule": "Cc1cc(Nc2ncc(Cl)c(Nc3ccccc3S(=O)(=O)C(C)C)n2)c(OC(C)C)cc1C1CCNCC1", "Result": 96.9}
{"Molecule": "CNC(=O)c1cc(Oc2ccc(NC(=O)Nc3ccc(Cl)c(C(F)(F)F)c3)cc2)ccn1", "Result": 100.5}
{"Molecule": "O=C(c1cc(Cc2n[nH]c(=O)c3ccccc23)ccc1F)N1CCN(C(=O)C2CC2)CC1", "Result": 111.4}
{"Molecule": "CCN(CC)CCNC(=O)c1c(C)[nH]c(/C=C2\\C(=O)Nc3ccc(F)cc32)c1C", "Result": 130.7}
{"Molecule": "C#Cc1cccc(Nc2ncnc3cc(OCCOC)c(OCCOC)cc23)c1", "Result": 111.5}

* * *

Procedure Text: Long-term stability in spiked pooled human plasma
Run Conditions: validation standard 2xLLOV
Outcome Measure: Long-term stability, 2 month, -80°C Accuracy [%] (%)

{"Compound": "O=C1CN2Cc3c(ccc(Cl)c3Cl)N=C2N1 [Anagrelide]", "Result": 118.5}
{"Compound": "Nc1cccc2c1C(=O)N(C1CCC(=O)NC1=O)C2=O (centres unmarked) [Pomalidomide]", "Result": 96.6}
{"Compound": "Cc1cn(-c2cc(NC(=O)c3ccc(C)c(Nc4nccc(-c5cccnc5)n4)c3)cc(C(F)(F)F)c2)cn1 [Nilotinib]", "Result": 99.7}
{"Compound": "CNC(=O)c1cc(Oc2ccc(NC(=O)Nc3ccc(Cl)c(C(F)(F)F)c3)c(F)c2)ccn1 [Regorafenib]", "Result": 104.3}
{"Compound": "CS(=O)(=O)c1ccc(C(=O)Nc2ccc(Cl)c(-c3ccccn3)c2)c(Cl)c1 [Vismodegib]", "Result": 104.3}
{"Compound": "CCc1cc2c(cc1N1CCC(N3CCOCC3)CC1)C(C)(C)c1[nH]c3cc(C#N)ccc3c1C2=O [Alectinib]", "Result": 86.9}
{"Compound": "C[C@]12CC[C@H](O)CC1=CC[C@@H]1[C@@H]2CC[C@]2(C)C(c3cccnc3)=CC[C@@H]12 [Abiraterone]", "Result": 100.1}
{"Compound": "COc1cc2ncnc(Nc3ccc(F)c(Cl)c3)c2cc1NC(=O)/C=C/CN1CCCCC1 [Dacomitinib]", "Result": 107.1}
{"Compound": "Cc1ccc(C(=O)Nc2ccc(CN3CCN(C)CC3)c(C(F)(F)F)c2)cc1C#Cc1cnc2cccnn12 [Ponatinib]", "Result": 97.8}
{"Compound": "CNC(=O)c1cc(Oc2ccc(NC(=O)Nc3ccc(Cl)c(C(F)(F)F)c3)cc2)ccn1 [Sorafenib]", "Result": 106.2}
{"Compound": "Cc1c(C(=O)Nc2ccc(N3C[C@@H](C)O[C@@H](C)C3)nc2)cccc1-c1ccc(OC(F)(F)F)cc1 [Sonidegib]", "Result": 107.0}
{"Compound": "COc1cc2c(Nc3ccc(Br)cc3F)ncnc2cc1OCC1CCN(C)CC1 [Vandetanib]", "Result": 106.4}
{"Compound": "C[C@@H](Oc1cc(-c2cnn(C3CCNCC3)c2)cnc1N)c1c(Cl)ccc(F)c1Cl [Crizotinib]", "Result": 93.8}
{"Compound": "O=C(c1cc(Cc2n[nH]c(=O)c3ccccc23)ccc1F)N1CCN(C(=O)C2CC2)CC1 [Olaparib]", "Result": 103.3}
{"Compound": "CNC(=O)c1ccccc1Sc1ccc2c(/C=C/c3ccccn3)n[nH]c2c1 [Axitinib]", "Result": 94.2}
{"Compound": "C=CC(=O)Nc1cc(Nc2nccc(-c3cn(C)c4ccccc34)n2)c(OC)cc1N(C)CCN(C)C [Osimertinib]", "Result": 103.9}
{"Compound": "C#Cc1cccc(Nc2ncnc3cc(OCCOC)c(OCCOC)cc23)c1 [Erlotinib]", "Result": 105.9}
